This collection of values is drawn from ChEMBL document CHEMBL2424622.

Below is a list of entries, each paired with its recorded inhibition value.
SUBJECT OF TEST: Insulin-like growth factor 1 receptor (Homo sapiens) (UniProt P08069)
Sequence (P08069 31-736 limits assumed): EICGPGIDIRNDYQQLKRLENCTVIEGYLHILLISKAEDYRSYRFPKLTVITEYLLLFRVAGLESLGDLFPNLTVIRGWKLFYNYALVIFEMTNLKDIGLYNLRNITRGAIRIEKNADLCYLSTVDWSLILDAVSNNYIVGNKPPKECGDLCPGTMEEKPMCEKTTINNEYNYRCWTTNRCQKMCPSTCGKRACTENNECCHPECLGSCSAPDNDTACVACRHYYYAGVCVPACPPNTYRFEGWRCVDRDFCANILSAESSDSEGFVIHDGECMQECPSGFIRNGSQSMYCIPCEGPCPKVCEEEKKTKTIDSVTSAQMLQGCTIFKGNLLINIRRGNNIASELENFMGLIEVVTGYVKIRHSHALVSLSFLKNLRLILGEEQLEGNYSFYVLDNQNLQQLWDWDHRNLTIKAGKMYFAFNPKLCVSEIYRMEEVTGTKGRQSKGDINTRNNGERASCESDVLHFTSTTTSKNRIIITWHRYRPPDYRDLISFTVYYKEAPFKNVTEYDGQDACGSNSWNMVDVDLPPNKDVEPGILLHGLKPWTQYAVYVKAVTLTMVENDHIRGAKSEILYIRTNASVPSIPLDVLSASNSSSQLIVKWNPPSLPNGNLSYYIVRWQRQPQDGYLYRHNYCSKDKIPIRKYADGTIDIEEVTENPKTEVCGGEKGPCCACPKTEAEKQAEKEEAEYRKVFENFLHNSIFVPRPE
Sequence (P08069 741-1367 limits assumed): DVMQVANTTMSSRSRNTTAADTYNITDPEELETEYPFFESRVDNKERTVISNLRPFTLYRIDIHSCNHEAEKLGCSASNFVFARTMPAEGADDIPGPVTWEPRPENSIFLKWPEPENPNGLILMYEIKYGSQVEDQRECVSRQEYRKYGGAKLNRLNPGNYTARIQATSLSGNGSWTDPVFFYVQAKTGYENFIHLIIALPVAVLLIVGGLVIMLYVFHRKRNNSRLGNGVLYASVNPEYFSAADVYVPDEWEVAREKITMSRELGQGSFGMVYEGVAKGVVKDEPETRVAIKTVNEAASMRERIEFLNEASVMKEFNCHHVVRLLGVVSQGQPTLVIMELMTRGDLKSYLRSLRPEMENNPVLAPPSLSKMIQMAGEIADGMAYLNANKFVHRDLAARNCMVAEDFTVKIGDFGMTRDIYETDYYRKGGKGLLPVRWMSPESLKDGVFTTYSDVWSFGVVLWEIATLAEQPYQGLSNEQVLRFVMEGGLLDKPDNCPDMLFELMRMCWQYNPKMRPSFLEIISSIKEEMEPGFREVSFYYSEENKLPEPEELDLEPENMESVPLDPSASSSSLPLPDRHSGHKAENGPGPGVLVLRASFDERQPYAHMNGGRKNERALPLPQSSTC
ASSAY: Competitive binding affinity to IGF1R (unknown origin) at 10 uM in presence of ATP relative to control

{"columns": ["MOLECULE SMILES", "SUBJECT OF TEST", "inhibition"],
 "data": [
  ["O[C@H]1CC[C@H](Nc2nccc(-n3ncc4ccccc43)n2)CC1", "Insulin-like growth factor 1 receptor (Homo sapiens) (UniProt P08069)", "< 50%"],
  ["O[C@H]1CC[C@H](Nc2nccc(-c3n[nH]c4ccccc34)n2)CC1", "Insulin-like growth factor 1 receptor (Homo sapiens) (UniProt P08069)", "95%"],
  ["O[C@H]1CC[C@H](Nc2nccc(-n3ccc4ccccc43)n2)CC1", "Insulin-like growth factor 1 receptor (Homo sapiens) (UniProt P08069)", "< 50%"],
  ["O[C@H]1CC[C@H](Nc2nccc(-n3nnc4ccccc43)n2)CC1", "Insulin-like growth factor 1 receptor (Homo sapiens) (UniProt P08069)", "< 50%"],
  ["N[C@H]1CC[C@H](Nc2nccc(-n3nnc4ccccc43)n2)CC1", "Insulin-like growth factor 1 receptor (Homo sapiens) (UniProt P08069)", "< 50%"],
  ["O=C([C@H]1CC[C@H](Nc2nccc(-n3nnc4ccccc43)n2)CC1)N1CCOCC1", "Insulin-like growth factor 1 receptor (Homo sapiens) (UniProt P08069)", "< 50%"]
]}

---

SUBJECT OF TEST: cAMP-dependent protein kinase catalytic subunit PRKX (Homo sapiens)
ASSAY: Competitive binding affinity to PRKX (unknown origin) at 10 uM in presence of ATP relative to control
MEASURED ENDPOINT: inhibition

{"columns": ["MOLECULE SMILES", "OBSERVED VALUE"],
 "data": [
  ["O[C@H]1CC[C@H](Nc2nccc(-n3nnc4ccccc43)n2)CC1", "< 50%"],
  ["O[C@H]1CC[C@H](Nc2nccc(-c3n[nH]c4ccccc34)n2)CC1", "< 50%"],
  ["O[C@H]1CC[C@H](Nc2nccc(-n3ncc4ccccc43)n2)CC1", "< 50%"],
  ["O[C@H]1CC[C@H](Nc2nccc(-n3ccc4ccccc43)n2)CC1", "< 50%"]
]}

---

SUBJECT OF TEST: Protein-tyrosine kinase 2-beta (Homo sapiens) (UniProt Q14289)
Sequence (Q14289 whole entry, looked up): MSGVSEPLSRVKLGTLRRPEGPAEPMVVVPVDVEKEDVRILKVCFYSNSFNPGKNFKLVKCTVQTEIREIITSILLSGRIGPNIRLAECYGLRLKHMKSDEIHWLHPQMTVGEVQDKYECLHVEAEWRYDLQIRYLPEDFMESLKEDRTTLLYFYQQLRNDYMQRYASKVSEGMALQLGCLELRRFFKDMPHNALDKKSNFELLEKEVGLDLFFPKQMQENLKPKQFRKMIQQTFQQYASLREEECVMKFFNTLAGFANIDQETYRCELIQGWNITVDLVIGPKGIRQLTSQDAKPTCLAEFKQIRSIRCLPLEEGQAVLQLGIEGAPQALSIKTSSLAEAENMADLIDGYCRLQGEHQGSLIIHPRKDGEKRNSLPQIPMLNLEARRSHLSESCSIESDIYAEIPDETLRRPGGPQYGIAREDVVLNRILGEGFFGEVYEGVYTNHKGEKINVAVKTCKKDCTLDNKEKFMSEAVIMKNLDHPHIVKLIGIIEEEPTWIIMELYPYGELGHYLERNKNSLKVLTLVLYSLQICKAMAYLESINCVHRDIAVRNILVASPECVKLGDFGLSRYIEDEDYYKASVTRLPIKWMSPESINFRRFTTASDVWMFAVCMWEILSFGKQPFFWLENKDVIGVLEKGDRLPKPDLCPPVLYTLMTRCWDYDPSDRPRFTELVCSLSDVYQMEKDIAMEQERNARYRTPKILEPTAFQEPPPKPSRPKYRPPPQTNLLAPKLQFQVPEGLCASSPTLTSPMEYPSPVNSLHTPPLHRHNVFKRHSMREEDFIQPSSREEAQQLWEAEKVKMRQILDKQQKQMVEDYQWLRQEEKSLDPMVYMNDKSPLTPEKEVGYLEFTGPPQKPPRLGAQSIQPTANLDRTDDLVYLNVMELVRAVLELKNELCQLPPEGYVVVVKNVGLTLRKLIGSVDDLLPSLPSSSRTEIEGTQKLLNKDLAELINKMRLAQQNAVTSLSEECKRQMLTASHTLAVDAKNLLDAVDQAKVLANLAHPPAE
ASSAY: Competitive binding affinity to PTK2B (unknown origin) at 10 uM in presence of ATP relative to control
Below is a list of entries, each paired with its recorded inhibition value.
MEASURED ENDPOINT: inhibition

{"columns": ["MOLECULE SMILES", "MEASURED ENDPOINT", "OBSERVED VALUE"],
 "data": [
  ["O[C@H]1CC[C@H](Nc2nccc(-c3n[nH]c4ccccc34)n2)CC1", "inhibition", "77%"],
  ["O[C@H]1CC[C@H](Nc2nccc(-n3ccc4ccccc43)n2)CC1", "inhibition", "< 50%"],
  ["O[C@H]1CC[C@H](Nc2nccc(-n3ncc4ccccc43)n2)CC1", "inhibition", "< 50%"],
  ["N[C@H]1CC[C@H](Nc2nccc(-n3nnc4ccccc43)n2)CC1", "inhibition", "< 50%"],
  ["O[C@H]1CC[C@H](Nc2nccc(-n3nnc4ccccc43)n2)CC1", "inhibition", "< 50%"],
  ["O=C([C@H]1CC[C@H](Nc2nccc(-n3nnc4ccccc43)n2)CC1)N1CCOCC1", "inhibition", "< 50%"]
]}
